- TEST NAME: Metabolic stability in C57BL/6 mouse liver microsome at 1 uM measured upto 60 mins in presence of NADPH/UDPGA by LC-MS/MS analysis
- Type: ADME, microsomes
- CONDITION DETAILS: C57BL/6, mouse, liver microsomes, read-out: Stability

{"CHEMICAL STRING": "Cc1ncsc1-c1ccc(CNC(=O)[C@@H]2C[C@@H](O)CN2C(=O)[C@@H](NC(=O)c2cccc(O)c2O)C(C)(C)C)cc1", "remaining at 1 h, 1 µM": "24%"}

###

- TEST NAME: Metabolic stability in C57BL/6 mouse liver microsome assessed as half life at 1 uM measured upto 60 mins by LC-MS/MS analysis
- Type: ADME, microsomes
- CONDITION DETAILS: C57BL/6, mouse, liver microsomes
OBSERVED PROPERTY: half-life at 1 µM

{"CHEMICAL STRING": "Cc1ncsc1-c1ccc(CNC(=O)[C@@H]2C[C@@H](O)CN2C(=O)[C@@H](NC(=O)c2cccc(O)c2O)C(C)(C)C)cc1", "MEASURED RESULT": "> 1 h"}

###

# Cmax listing for each entry below
- TEST NAME: Cmax in C57BL/6 mouse at 10 mg/kg, ip measured upto 24 hrs by LC-MS/MS analysis
- Type: ADME, organism-based
- CONDITION DETAILS: in vivo
OBSERVED PROPERTY: Cmax

{"CHEMICAL STRING": "CCNC(=O)C[C@@H]1N=C(c2ccc(Cl)cc2)c2cc(B(O)O)ccc2-n2c(C)nnc21", "OBSERVED PROPERTY": "Cmax", "MEASURED RESULT": "1480 ng/mL"}
{"CHEMICAL STRING": "Cc1ncsc1-c1ccc(CNC(=O)[C@@H]2C[C@@H](O)CN2C(=O)[C@@H](NC(=O)c2cccc(O)c2O)C(C)(C)C)cc1", "OBSERVED PROPERTY": "Cmax", "MEASURED RESULT": "1570 ng/mL"}

###

- TEST NAME: Metabolic stability in human liver microsome assessed as half life at 1 uM measured upto 60 mins by LC-MS/MS analysis
- Type: ADME
- CONDITION DETAILS: liver microsomes
OBSERVED PROPERTY: half-life at 1 µM

{"CHEMICAL STRING": "CCNC(=O)C[C@@H]1N=C(c2ccc(Cl)cc2)c2cc(B(O)O)ccc2-n2c(C)nnc21", "MEASURED RESULT": "> 1 h"}
{"CHEMICAL STRING": "Cc1ncsc1-c1ccc(CNC(=O)[C@@H]2C[C@@H](O)CN2C(=O)[C@@H](NC(=O)c2cccc(O)c2O)C(C)(C)C)cc1", "MEASURED RESULT": "> 1 h"}

###

- TEST NAME: Metabolic stability in human liver microsome at 1 uM measured upto 60 mins in absence of NADPH/UDPGA by LC-MS/MS analysis
- Assay type: ADME
- CONDITION DETAILS: liver microsomes, read-out: Stability
# remaining at 1 h, 1 µM listing for each entry below
OBSERVED PROPERTY: remaining at 1 h, 1 µM (%)

{"CHEMICAL STRING": "CCNC(=O)C[C@@H]1N=C(c2ccc(Cl)cc2)c2cc(B(O)O)ccc2-n2c(C)nnc21", "OBSERVED PROPERTY": "remaining at 1 h, 1 µM", "UNITS TEXT": "%", "MEASURED RESULT": 101}
{"CHEMICAL STRING": "Cc1ncsc1-c1ccc(CNC(=O)[C@@H]2C[C@@H](O)CN2C(=O)[C@@H](NC(=O)c2cccc(O)c2O)C(C)(C)C)cc1", "OBSERVED PROPERTY": "remaining at 1 h, 1 µM", "UNITS TEXT": "%", "MEASURED RESULT": 87}
